# Test system: CCRF-CEM leukemia
# MEASUREMENT_PROTOCOL: NCI-60 one-dose screen, 48 h
# EXPERIMENTAL_PARAMETERS: 10 µM unless noted
Compounds without any hit were thinned out: in the full panel of roughly 83,000, 20% have a hit. Active and inactive are the calls of the source. Rule for the calls: active = growth percent below 10; inactive = the rest.
I would appreciate it if you answered using one of these outcomes: class 1 (active), class 0 (inactive)

Examples with answers:
CCCCCCCCc1ccc(C(=O)Nc2ccc(C)c(OP(=O)(O)O)c2)cc1 = class 0
O=C(c1ccc(Cl)cc1)C1[C@H](c2ccccc2Cl)[C@@H](c2ccccc2)NC12C(=O)Nc1ccccc12 (some centres undefined) = class 1
c1n[nH]cc1-c1nc2ccc3[nH]ncc3c2c2c1CC1(CCOCC1)CC2 = class 0
O=C(CSc1nnc(-c2ccc(-c3nc4ccc(Cl)cc4[nH]3)cc2)o1)Nc1ccc(Cl)cc1 = class 1
CCOc1ccc(-c2cc(-c3cc(C(C)C)c(O)cc3C)nn2-c2ccc(S(N)(=O)=O)cc2)cc1 = class 0

Given Cn1cc(-c2cc(N)n3nc(-c4c[nH]c5ccc(F)cc45)cc3n2)c2cccnc21 , state the outcome it received in this test.
class 1

Short answer needed: outcome of this test for CCC(=O)c1cc(C(=O)OC)c2ccc3c4ccccc4ccc3n12 ?
class 0

State the result this test recorded for COc1ccccc1/C=C/c1cccc(NC(=S)NCCCCN(C)C)c1 .
class 1

Name the outcome recorded for COc1ccc(NC(=O)NN2C(=O)c3ccccc3N(C)C2c2ccc(OC)cc2)cc1 (centres undefined) in the assay.
class 0

Which outcome was entered for the molecule Clc1ccc(CNc2nc(SCCN3CCOCC3)nc3c2cnn3CC(Cl)c2ccc(Br)cc2)cc1 (centres undefined) in this test?
class 0

For CCc1ccc(SC2c3cc(OC)ccc3Oc3nc(N)c(C#N)c(N)c32)cc1 (centres undefined) , what call appears in the results of this test?
class 1

State the result this test recorded for CCOC(=O)/C(F)=C/C1CC1CCc1ccc(OCC)cc1 (centres undefined) .
class 0

Outcome? O=C(NNC(=S)NC(=O)c1ccccc1)c1ccc(OCc2nc3ccc(Cl)cc3[nH]2)cc1
class 1

I'd appreciate the recorded outcome for O=C(CSc1nc2sc3c(c2c(=O)n1-c1ccc(Cl)cc1)CCCC3)NNC(=O)c1ccc(Br)cc1 from this test.
class 0

In this assay, the call recorded for Cn1cc(-c2cc3nc(-c4cn(C)c5ncc(Br)cc45)cc(N)n3n2)c2cc(F)ccc21 was what?
class 1

Please let me know the test result on file for O=C(Nc1nc2ccccc2s1)Nc1ccccc1Cl .
class 0

Recorded test outcome, item COc1cc(/C=C/C(=O)c2cnn(-c3cc(=O)[nH]c4ccc(Cl)cc34)c2C)cc(OC)c1OC
class 1

Please indicate how the test categorized COC(=O)c1c(C(=O)OC)c2ccc3c4ccccc4ccc3n2c1C(=O)OC .
class 0

Look up the recorded call for CS(=O)(=O)Nc1cccc(-n2cnc3cc(-c4ccc(O)cc4)ccc32)c1 in this test.
class 0

* * *

# Test system: SK-MEL-2 melanoma
# MEASUREMENT_PROTOCOL: NCI-60 one-dose screen, 48 h
# EXPERIMENTAL_PARAMETERS: 10 µM unless noted
Compounds without any hit were thinned out: in the full panel of roughly 83,000, 20% have a hit. The source made the active and inactive calls. How the source made its calls: active means growth percent below 10; inactive means the rest.
Reply using exactly one outcome from TRUE = active, FALSE = inactive

Cc1ccc(N=Nc2c(N)nn3c(-c4cc5cc(Br)ccc5oc4=O)ccnc23)cc1 = FALSE
Cc1ccc(S(=O)(=O)Nc2ccc(-c3ccc4c(c3)NC(=O)/C4=C\c3ccc[nH]3)cc2)cc1 = FALSE
COc1cc(C2CC(c3ccc(F)cc3)=Nc3c(N)nc(N)nc3N2)ccc1Oc1nc(Nc2ccc(F)cc2)nc(N(C)C)n1 (stereo unspecified) = FALSE

# fetch the recorded call for CS(=O)(=O)c1ccc(-n2nc(C(=O)NCc3ccccc3)cc2-c2ccc(Cl)cc2)cc1 here
FALSE

GET /call?item= CCC(=O)c1c2c(c3ccc4c5ccccc5ccc4n13)C(=O)c1ccccc1C2=O returns the recorded outcome of this test.
FALSE

Test call, this compound: CCCCNc1ccc2c3c(cccc13)C(=O)N(c1cccc(-c3nn(-c4ccccc4)cc3-c3nc4ccccc4s3)c1)C2=O
FALSE

Field: outcome | Entry: O=C(c1ccc(Cl)cc1)C1[C@H](c2ccccc2Cl)[C@@H](c2ccccc2)NC12C(=O)Nc1ccc(Br)cc12 (stereo partly specified)
TRUE

Tell me the assay call for C[C@@H]1[C@H]2C[C@@H](C[C@H]1NCc1nc3ccccc3n1C1CCCCCC1)C2(C)C please.
FALSE

I'd appreciate the recorded outcome for Cn1cc(-c2cc(N)n3nc(-c4c[nH]c5ccc(Cl)cc45)cc3n2)c2cc(Br)cnc21 from this test.
TRUE

For CN(C)CCOc1ccc(C(=O)C2[C@H](c3ccc(Cl)cc3)[C@@H](c3ccccc3)NC23C(=O)Nc2ccc(Cl)cc23)cc1 (stereo partly specified) , which call appears in the assay record?
TRUE

Query: recorded result category for O=C(N/N=C/c1ccc(Cl)cc1)c1ccc(OCc2nc3ccc(Cl)cc3[nH]2)cc1 in this test
FALSE

Identify the outcome logged in this assay for the compound shown: CC1=C(C)C(=O)C(NCCN2CCOCC2)=C(Br)C1=O
FALSE

Kindly provide the recorded test outcome for the following compound: O=C(Nc1nc2ccccc2s1)Nc1ccccc1Cl
FALSE

Per the records of this test, what outcome belongs to O=C1Nc2ccc(F)cc2/C1=C/C(=O)c1cc2ccccc2oc1=O ?
FALSE

What classification did O=C(N/N=C/c1c[nH]c2ccccc12)Nc1ccccc1Cl end up with in this test?
FALSE

// param item: CN1CCN(CCS(=O)(=O)Nc2cc(-c3ccc4ncnc(Nc5ccc(F)c(Cl)c5)c4c3)cnc2Cl)CC1 ; yields the recorded call
TRUE

Data provenance: PubChem BioAssay (NCI)
